- targetDesc: Shiga toxin 2 (Escherichia coli O157:H7) (UniProt P09385+P09386)
- methodSummary: E. coli 0.157:H7 Shiga Toxin SOP - stx2 screening assay
- Type: functional
- Design: scale not given: direction of the effect not stated beside the values
- condition: 30 µM
The following molecules are listed with their measured Percent Effect values.
Response body: numeric value in %, unit text excluded.

Reference set (4 entries):
1. COc1cccc2c1OCC(C(=O)NC1CCN(S(C)(=O)=O)CC1)C2 (stereo not given)
11.1
2. Cc1noc(C)c1CNCC1CCCN1c1cccnn1 (stereo not given)
5.13
3. Cc1nn(C)c2c(N3CCN(C(=O)c4ccccc4)CC3)ncnc12
-28.7
4. CC(C)c1nnc2n1CCN(C(=O)c1ccnc(N(C)C)c1)C2
-7.07

Please find the next molecule below.
Dear colleague, I am looking for the recorded Percent Effect of the following molecule: "O=C(c1cccn1Cc1cccs1)N1CCN(C(=O)C2CC2)CC1"
-4.84

----------
The following molecules are listed with their measured Percent Effect values.
- targetDesc: Aspartate--tRNA(Asp/Asn) ligase (Mycobacterium tuberculosis (strain ATCC 25618 / H37Rv)) (UniProt P9WFW3); further: in the data most compounds retested in dose-response had high values
- methodSummary: Assay for Asp RNA synthetase-1 from Mycobacterium tuberculosis
- Format: functional
- Design: scale not given: direction of the effect not stated beside the values
- condition: 30 µM
Response body: numeric value in %, unit text excluded.

Reference set (2 entries):
1) CCc1nc(CN2CCCN(C(=O)C(C)n3cncn3)CC2)cs1 (centres undefined)
-3.06
2) Cc1cc(-c2nnn(CCC(N)=O)n2)ccc1F
-0.912

Dear colleague, I am looking for the recorded Percent Effect of the following molecule: "Cc1cc(F)ccc1CNCCn1cccn1"
-3.06

Subsequent entry: COc1cc(C)ccc1OCCC(=O)N1CCCC1Cn1cccn1 (centres undefined)
2

Subsequent entry: Cc1nc(C)n(C2CCCN(C(=O)c3ccc(F)cc3F)C2)n1 (centres undefined)
-6.88

Subsequent entry: "CCc1cnc2c(c1NCc1ccncc1)c(=O)n(C)c(=O)n2C"
-0.949

----------
- targetDesc: Shiga toxin 2 (Escherichia coli O157:H7) (UniProt P09385+P09386)
- methodSummary: E. coli 0.157:H7 Shiga Toxin SOP - stx2 screening assay
- Format: functional
- Parameters: scale not given: direction of the effect not stated beside the values
- condition: 30 µM
Classify by measured Percent Effect: 1 if it is equal to or exceeds -20%, -1 if it is smaller.

Here's what some known entries look like.
1) CCc1ncc(C(=O)N2CCCCC2Cn2cccn2)s1 (stereo not given)
1
2) CS(=O)(=O)N1CCCCCC1C1CCN(c2ncccc2C#N)CC1 (stereo not given)
1
3) CC(C)Cc1noc(CN2CCN(CCOc3ccc(Cl)cc3)CC2)n1
1
4) Cc1ccc2c(c1)CN(C(=O)c1ccccc1F)C(CN(C)C)CO2 (stereo not given)
1
5) COc1ccc(OCCc2sc(C3(O)CCCNCC3)nc2C)cc1 (stereo not given)
-1
6) Cc1ccc(C(=O)NCCS(C)(=O)=O)c(=O)[nH]1
1

Confirm if Percent Effect reported for the compound NC(=O)CSCCC(=O)N1CCCC1c1ccsc1 (stereo not given) is -20% or above.
1

Subsequent entry: COCc1ccccc1C(=O)NCCCN1CCCC1C(=O)N(C)C (stereo not given)
-1

Subsequent entry: "COCCNC(=O)c1ccc(C)c(-n2cccc2)c1"
1

----------
- targetDesc: Aspartate--tRNA(Asp/Asn) ligase (Mycobacterium tuberculosis (strain ATCC 25618 / H37Rv)) (UniProt P9WFW3); further: in the data most compounds retested in dose-response had high values
- methodSummary: Assay for Asp RNA synthetase-1 from Mycobacterium tuberculosis
- Type: functional
- Design: scale not given: direction of the effect not stated beside the values
- condition: 30 µM
The following molecules are listed with their measured Percent Effect values.
Response body: numeric value in %, unit text excluded.

1. O=C(c1ccc(Br)o1)N1CCN(Cc2ccc(OC(F)(F)F)cc2)CC1
-5.95

Dear colleague, I am looking for the recorded Percent Effect of the following molecule: "Cc1ccc(CN(Cc2c[nH]cn2)C2CC(C)(C)NC(C)(C)C2)o1"
-1.68

Subsequent entry: CCOc1ccccc1C(=O)N1CCCC1c1ncc2c(n1)CCNC2 (centres undefined)
-3.07

Subsequent entry: "Cc1noc([C@@H]2CCCN2C(=O)C2CCN(C(=O)C3CCC3)CC2)n1"
6.9

Subsequent entry: CC(NC(=O)NCCCOC1CCCCC1)c1nncn1C (centres undefined)
-3.32

Subsequent entry: Cc1cc(CN2CCCC(C)(CO)C2)ccc1F (centres undefined)
-3.62

Subsequent entry: CC(C)(C)c1cn2nc(N3CCCC3Cn3cncn3)sc2n1 (centres undefined)
-3.59

Subsequent entry: Cc1ncc(S(C)(=O)=O)c(C2CCCNC2)n1 (centres undefined)
0.276

Subsequent entry: CNc1cncc(C2CCCN2C(=O)c2ccc3oc(=O)n(C)c3c2)n1 (centres undefined)
5.14

Subsequent entry: CC(Cc1ccco1)NC(=O)Nc1cnn(CC(N)=O)c1 (centres undefined)
2.29

Subsequent entry: "Cc1ncc(C(=O)N2C[C@H]3CC[C@@H]2CN(S(=O)(=O)N(C)C)C3)c(C)n1"
-0.678

Subsequent entry: "Cc1cccc(CN2C(=O)CCC23CCN(Cc2cccn2C)CC3)n1"
0.796

Subsequent entry: "O=C(C1CCCC1)N1CCN(Cc2nc(-c3ccco3)no2)CC1"
-3

Subsequent entry: Cc1cncc(C2CCCN(C(=O)c3c[nH]c(=O)[nH]c3=O)C2)n1 (centres undefined)
3.87

----------
- targetDesc: Aspartate--tRNA(Asp/Asn) ligase (Mycobacterium tuberculosis (strain ATCC 25618 / H37Rv)) (UniProt P9WFW3); further: in the data most compounds retested in dose-response had high values
- methodSummary: Assay for Asp RNA synthetase-1 from Mycobacterium tuberculosis
- Type: functional
- Set-up: scale not given: direction of the effect not stated beside the values
- condition: 30 µM
readoutType: Percent Effect
Include the unit after the number when you answer.

Reference set (3 entries):
1. Cc1nc(C)n(C2CCCN(C(=O)c3cc4ccccc4n3C)C2)n1 (configuration not stated)
-0.634%
2. CN(CC1CN(Cc2cn3ccsc3n2)CCO1)c1cccnn1 (configuration not stated)
-3.78%
3. CN(Cc1nc(-c2ccco2)no1)C1CCCN(c2cccnn2)C1 (configuration not stated)
-3.2%

Please find the next molecule below.
Dear colleague, I am looking for the recorded Percent Effect of the following molecule: "O=C([C@@H]1COC[C@H]2CN(C3CCOCC3)C[C@H]21)N1CCCCO1"
6.99%

----------
The following compounds are listed with their measured Percent Effect values.
- targetDesc: Aspartate--tRNA(Asp/Asn) ligase (Mycobacterium tuberculosis (strain ATCC 25618 / H37Rv)); further: in the data most compounds retested in dose-response had high values
- methodSummary: Assay for Asp RNA synthetase-1 from Mycobacterium tuberculosis
- Assay type: functional
- Parameters: scale not given: direction of the effect not stated beside the values
- condition: 30 µM
Response body: numeric value in %, unit text excluded.

1) CC(C)c1ccsc1C(=O)N1CCCN(Cc2cscn2)CC1
6.6
2) CC(=O)c1cccc(OCCCC(=O)NCC2CCCN2C)c1 (stereo not drawn)
-2.48

Please find the next compound below.
Dear colleague, I am looking for the recorded Percent Effect of the following compound: CN(Cc1cnn(-c2ccccc2)n1)CC1CCCN1c1cccnn1 (stereo not drawn)
1.85

----------
The following molecules are listed with their measured Percent Effect values.
- targetDesc: Shiga toxin 2 (Escherichia coli O157:H7) (UniProt P09385+P09386)
- methodSummary: E. coli 0.157:H7 Shiga Toxin SOP - stx2 screening assay
- Format: functional
- Set-up: scale not given: direction of the effect not stated beside the values
- condition: 30 µM
Response body: numeric value in %, unit text excluded.

1. Cc1cc(C)n(CC2CCCCN2C(=O)c2cnn(C)c2)n1 (stereo not given)
-14
2. CNc1cncc(C2CCCN(S(C)(=O)=O)C2)n1 (stereo not given)
2.62
3. CN(CCN1CCCCCC1)C(=O)c1cc(CN2CCC(O)CC2)on1
-37.1
4. Cc1cc(CN(C)C(=O)NC2CCCN(c3ncccn3)C2)no1 (stereo not given)
33.3
5. CC(C)c1nnc2n1CCN(CCCS(=O)(=O)c1ccccc1)C2
-15.3
6. CNC(=O)c1cc2c(nc1N(C)C)CCN(S(=O)(=O)CC(C)C)CC2
-2.65
7. Cc1cccc2c1cnn2CCC(=O)NCC(=O)N(C)C
-22.2
8. CN(C)Cc1ccnc(C2CCCN2Cc2cc[nH]n2)n1 (stereo not given)
9.83

Dear colleague, I am looking for the recorded Percent Effect of the following molecule: Cc1ccc(N2CCCC(NCc3ccncc3)C2)nn1 (stereo not given)
-14.5

Subsequent entry: COCCCN1CCCN(C(C)c2nc(C3CC3)no2)CC1 (stereo not given)
-23.4

Subsequent entry: CC(C)n1[nH]c(=O)c2c1NC(=O)CC2c1cccc(OC(F)F)c1 (stereo not given)
-12.1

----------
- targetDesc: Aspartate--tRNA(Asp/Asn) ligase (Mycobacterium tuberculosis (strain ATCC 25618 / H37Rv)) (UniProt P9WFW3); further: in the data most compounds retested in dose-response had high values
- Sequence (whole entry): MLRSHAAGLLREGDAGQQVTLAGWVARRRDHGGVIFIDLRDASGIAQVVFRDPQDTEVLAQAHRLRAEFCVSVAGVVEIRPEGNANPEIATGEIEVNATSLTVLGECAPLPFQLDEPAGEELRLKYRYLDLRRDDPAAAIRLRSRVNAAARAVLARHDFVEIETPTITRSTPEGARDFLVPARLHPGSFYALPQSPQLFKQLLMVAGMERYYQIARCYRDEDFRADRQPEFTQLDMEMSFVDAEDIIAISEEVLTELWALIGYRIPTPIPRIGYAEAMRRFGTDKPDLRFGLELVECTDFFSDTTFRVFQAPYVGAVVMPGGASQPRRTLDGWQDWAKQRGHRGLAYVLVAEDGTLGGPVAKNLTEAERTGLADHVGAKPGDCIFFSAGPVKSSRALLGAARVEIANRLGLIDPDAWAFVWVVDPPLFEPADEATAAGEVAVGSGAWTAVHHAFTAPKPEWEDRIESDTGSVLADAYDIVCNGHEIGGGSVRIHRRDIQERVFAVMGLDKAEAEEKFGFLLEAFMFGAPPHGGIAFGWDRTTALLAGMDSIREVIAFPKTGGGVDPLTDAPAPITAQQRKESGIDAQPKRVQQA
- methodSummary: Assay for Asp RNA synthetase-1 from Mycobacterium tuberculosis
- Type: functional
- Design: scale not given: direction of the effect not stated beside the values
- condition: 30 µM
The following molecules are listed with their measured Percent Effect values.
Response body: numeric value in %, unit text excluded.

1) CCN1CC(C(=O)N2CCC(Oc3ccccc3C)CC2)CC1=O (stereo not given)
-1.25
2) CC(C)OCC(=O)N1CCCN(Cc2ccc(C#N)cc2)CC1
-0.7
3) CSCC(=O)N1CCCC1c1noc(C2CC2)n1 (stereo not given)
0.839
4) CCOCCn1c(=O)[nH]c2cc(C(=O)N(C)Cc3nc(C)cs3)ccc21
1.06
5) COc1ncccc1C(=O)N1CCC(CNC(C)=O)CC1
1.83

Dear colleague, I am looking for the recorded Percent Effect of the following molecule: "Nc1nccc(NCc2cc3n(n2)CCCN(C(=O)C2CCC2)C3)n1"
0.0228

Subsequent entry: CC(C)OCCN(C)C(C)c1cccc(S(N)(=O)=O)c1 (stereo not given)
-3.29

Subsequent entry: "CCN1CCN(C(=O)c2cc(C(=O)OC)nn2-c2ccccc2)CC1"
2.94

Subsequent entry: CC(C(=O)NCCOc1cccc(Cl)c1)n1cncn1 (stereo not given)
4.65
